Examples of compounds with documented fraction unbound at 6 h, 1 μM follow.
assay: in vitro; type: in vitro ADME; settings: human, plasma, Exp. PPB (fb*)
Positions of bridges follow the written chain, without caps; N, C: chain ends. Residues, ends and D or L forms follow the SMILES beside them.
Quick one: just the number, no unit, thanks!

Look over these answered cases.
compound	fraction unbound at 6 h, 1 μM
C[C@@H](O)[C@@H]1NC(=O)[C@H](CCCCN)NC(=O)[C@H](Cc2c[nH]c3ccccc23)NC(=O)[C@H](Cc2ccccc2)NC(=O)[C@H](Cc2ccccc2)NC(=O)[C@@H](N)CSSC[C@@H](C(=O)O)NC(=O)[C@H]([C@@H](C)O)NC1=O [Pep.6] (H-CFFWKTTC-OH; disulfide 1-8; N-terminus and C-terminus assumed)	0.737
CC(C)C[C@@H]1NC(=O)[C@H](CC(C)C)NC(=O)[C@H](CCCCN)NC(=O)[C@@H](N)CSSC[C@@H](C(=O)O)NC(=O)[C@H]([C@@H](C)O)NC(=O)[C@H](CCCCN)NC(=O)[C@H](CCCCN)NC1=O [Pep.7] (H-CKLLKKTC-OH; disulfide 1-8; N-terminus and C-terminus assumed)	1

Query compound follows.
[ask] Request the reported fraction unbound at 6 h, 1 μM associated with CC(C)C[C@@H]1NC(=O)[C@H](Cc2c[nH]c3ccccc23)NC(=O)[C@H](CC(=O)O)NC(=O)[C@H](CC(=O)O)NC(=O)[C@H](Cc2ccccc2)NC(=O)[C@H](CO)NC(=O)[C@@H](N)CSSC[C@@H](C(=O)O)NC(=O)[C@H](C)NC1=O [Pep.12] (H-CSFDDWLAC-OH; disulfide 1-9; N-terminus and C-terminus assumed)
[reply] 0.2

----------
test: in vitro; format: in vitro ADME; details: human, plasma, Exp. PPB (fb*)
Positions of bridges follow the written chain, without caps; N, C: chain ends. Residues, ends and D or L forms follow the SMILES beside them.
readoutType: fraction unbound at 6 h, 1 μM
A bare number is all that is needed in reply.

Example cases with answers are listed next.
compound	fraction unbound at 6 h, 1 μM
CC(C)[C@@H]1NC(=O)[C@H](C)NC(=O)[C@H](CO)NC(=O)[C@H](Cc2ccc(O)cc2)NC(=O)[C@H](C(C)C)NC(=O)[C@H](Cc2ccccc2)NC(=O)[C@@H](N)CSSC[C@@H](C(=O)O)NC1=O [Pep.15] (H-CFVYSAVC-OH; disulfide 1-8; N-terminus and C-terminus assumed)	0.847
NC(=O)CC[C@@H]1NC(=O)[C@H](Cc2c[nH]c3ccccc23)NC(=O)[C@@H]2CCCN2C(=O)[C@H](CCC(N)=O)NC(=O)[C@H](CC(N)=O)NC(=O)[C@@H](N)CSSC[C@@H](C(=O)O)NC1=O [Pep.11] (H-CNQPWQC-OH; disulfide 1-7; N-terminus and C-terminus assumed)	1

Attention now shifts to the item below.
[ask] Look up fraction unbound at 6 h, 1 μM: CC(C)C[C@@H]1NC(=O)[C@H](Cc2ccc(O)cc2)NC(=O)[C@@H](N)CSSC[C@@H](C(=O)O)NC(=O)CNC(=O)[C@H](Cc2c[nH]cn2)NC(=O)[C@H](Cc2ccc(O)cc2)NC(=O)[C@H](CCC(=O)O)NC(=O)[C@H](C)NC1=O [Pep.13] (H-CYLAEYHGC-OH; disulfide 1-9; N-terminus and C-terminus assumed)
[reply] 0.651

Values compiled from paper PMC6311893.
